Provenance of the data: patent US20120258980A1

Catalogue of MIC values
tested on: VISA clinical isolates of MRSA (VI-MRSA) and of MSSA (VI-MSSA); test: microbe, parasite or virus in culture; type: cell-based, Staphylococcus aureus; details: Staphylococcus aureus, HIP09433, VI-MRSA, America
Dear colleague, please send the value followed by its unit.

• CN[C@H](CC(C)C)C(=O)N[C@H]1C(=O)N[C@@H](CC(N)=O)C(=O)N[C@H]2C(=O)N[C@H]3C(=O)N[C@H](C(=O)N[C@H](C(=O)O)c4cc(O)cc(O)c4-c4cc3ccc4O)[C@H](O)c3ccc(c(Cl)c3)Oc3cc2cc(c3O[C@@H]2O[C@H](CO)[C@@H](O)[C@H](O)[C@H]2O[C@H]2C[C@](C)(N)[C@H](O)[C@H](C)O2)Oc2ccc(cc2Cl)[C@H]1O = 2 µg/mL

Now for another entry.
Query: Look up MIC: Cc1cc(=O)n(C)c2c3c4c(cc12)c(C)cc(=O)n4CO3
Response: 0.5 µg/mL
